- Test system: 349418-098-R-PDC complex spheroid viability;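 further: spheroids exposed to agents for seven days before readout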
- TEST METHOD NOTES: Anticancer human tumor 349418-098-R-PDC patient-derived lung adenocarcinoma cell line growth inhibition; active means viability on the fitted dose curve at most 10% of control; inactive means the rest
- CONDITIONS USED: second compound 1 µM; first compound 0.00316 µM
Answer with one of the outcomes given here: YES (active), NO (inactive)

Known results for compounds:
- COMPOUND: "COc1cc(Nc2ncc3c(n2)-c2ccc(Cl)cc2C(c2c(F)cccc2OC)=NC3)ccc1C(=O)O + NC1CC1c1ccc(-c2cccc(O)c2)cc1"
  TARGET: "349418-098-R-PDC complex spheroid viability"
  CLASS: "NO"
- COMPOUND: "O=C(C=Cn1cnc(-c2cc(C(F)(F)F)cc(C(F)(F)F)c2)n1)NNc1cnccn1 + NC1CCC(NC2CC2c2ccccc2)CC1"
  TARGET: "349418-098-R-PDC complex spheroid viability"
  CLASS: "NO"
- COMPOUND: "CC(C)CC(NC(=O)CNC(=O)c1cc(Cl)ccc1Cl)B1OC(=O)CC(CC(=O)O)(C(=O)O)O1 (configuration not stated) + NC1CCC(NC2CC2c2ccccc2)CC1"
  TARGET: "349418-098-R-PDC complex spheroid viability"
  CLASS: "YES"

QUERY: Recorded call for CC[C@@]1(O)C(=O)OCc2c1cc1n(c2=O)Cc2cc3c(CN(C)C)c(O)ccc3nc2-1 + NC1CC1c1ccc(-c2cccc(O)c2)cc1 ?
RESULT: NO

QUERY: Recorded call for CC[C@@]1(O)C(=O)OCc2c1cc1n(c2=O)Cc2cc3c(CN(C)C)c(O)ccc3nc2-1 + NC1CCC(NC2CC2c2ccccc2)CC1 ?
RESULT: NO

QUERY: Recorded call for COc1cc(Nc2ncc3c(n2)-c2ccc(Cl)cc2C(c2c(F)cccc2OC)=NC3)ccc1C(=O)O + NC1CCC(NC2CC2c2ccccc2)CC1 ?
RESULT: NO

QUERY: Recorded call for CC(C)CC(NC(=O)C(Cc1ccccc1)NC(=O)c1cnccn1)B(O)O (configuration not stated) + NC1CCC(NC2CC2c2ccccc2)CC1 ?
RESULT: YES
